Recorded Signal (peptides that bind to Z3G1) values for a group of substances are listed next.
# Test system: anti-M2 human monoclonal antibody Z3G1
# Type: binding
ASSAY_METRIC: Signal (peptides that bind to Z3G1)

substance="1473 (CEVETPIRNESLLTEVETPCEVETPIRNE; epitope peptide; MISC_FEATURE (1)..(1): C is an attachment site for a CLIP; MISC_FEATURE (10)..(10): E is an attachment site for a CLIP; MISC_FEATURE (11)..(11): S is an attachment site for a CLIP; MISC_FEATURE (29)..(29): E is an attachment site for a CLIP) [compound 1473]" assay_metric="Signal (peptides that bind to Z3G1)" experimental_value=2006
substance="1309 (MSLLTEVRTPIRNEWGCRCN; epitope peptide) [compound 1309]" assay_metric="Signal (peptides that bind to Z3G1)" experimental_value=2668
substance="1349 (MSLLCEVGCSCLCEV; epitope peptide) [compound 1349]" assay_metric="Signal (peptides that bind to Z3G1)" experimental_value=2586
substance="1308 (MSLLTEVPTPIRNEWGCRCN; epitope peptide) [compound 1308]" assay_metric="Signal (peptides that bind to Z3G1)" experimental_value=2380
substance="1334 (MSLLCEVGMCLLTEV; epitope peptide) [compound 1334]" assay_metric="Signal (peptides that bind to Z3G1)" experimental_value=2676
substance="543 (MSLLTCVGMSLLTEV; epitope peptide) [compound 543]" assay_metric="Signal (peptides that bind to Z3G1)" experimental_value=2627
substance="532 (MSCLTEVGMSLLTEV; epitope peptide) [compound 532]" assay_metric="Signal (peptides that bind to Z3G1)" experimental_value=2336
substance="415 (SLLTEVETPIRNEWGCRCNDRSD; epitope peptide) [compound 415]" assay_metric="Signal (peptides that bind to Z3G1)" experimental_value=2502
substance="1337 (MCLLTEVGMSLCTEV; epitope peptide) [compound 1337]" assay_metric="Signal (peptides that bind to Z3G1)" experimental_value=2513
substance="440 (SLLTEVETPIRNEW; epitope peptide) [compound 440]" assay_metric="Signal (peptides that bind to Z3G1)" experimental_value=2334
substance="1274 (MSLNTEVETPIRNEWGCRCN; epitope peptide) [compound 1274]" assay_metric="Signal (peptides that bind to Z3G1)" experimental_value=2787
substance="372 (CSLLTEVGMSCLTEV; epitope peptide) [compound 372]" assay_metric="Signal (peptides that bind to Z3G1)" experimental_value=2554
substance="1394 (SLLCEVECPIRNEWG; epitope peptide) [compound 1394]" assay_metric="Signal (peptides that bind to Z3G1)" experimental_value=2529
substance="1284 (MSLLHEVETPIRNEWGCRCN; epitope peptide) [compound 1284]" assay_metric="Signal (peptides that bind to Z3G1)" experimental_value=2691
substance="1350 (MSLLCEVGMCLCTCV; epitope peptide) [compound 1350]" assay_metric="Signal (peptides that bind to Z3G1)" experimental_value=2664
substance="408 (SLLTEVETPIRNEWGCRCNDISD; epitope peptide) [compound 408]" assay_metric="Signal (peptides that bind to Z3G1)" experimental_value=2527
substance="364 (CSLLTEVGCSLLTEV; epitope peptide) [compound 364]" assay_metric="Signal (peptides that bind to Z3G1)" experimental_value=2503
substance="431 (SLLTEVETPIRNEWGCRCNDSTD; epitope peptide) [compound 431]" assay_metric="Signal (peptides that bind to Z3G1)" experimental_value=2205
substance="1383 (CLLTEVECPIRNEWG; epitope peptide) [compound 1383]" assay_metric="Signal (peptides that bind to Z3G1)" experimental_value=2157
substance="618 (SLLTEVETPIRNEWGCRCLDSSD; epitope peptide) [compound 618]" assay_metric="Signal (peptides that bind to Z3G1)" experimental_value=2480
substance="613 (SLLTEVETPIRNEWGCRCNHSSD; epitope peptide) [compound 613]" assay_metric="Signal (peptides that bind to Z3G1)" experimental_value=2439
substance="1443 (CTEVETPIRNLLTEVETPICLTEVETPIR; epitope peptide; MISC_FEATURE (1)..(1): C is an attachment site for a CLIP; MISC_FEATURE (10)..(10): N is an attachment site for a CLIP; MISC_FEATURE (11)..(11): L is an attachment site for a CLIP; MISC_FEATURE (29)..(29): R is an attachment site for a CLIP) [compound 1443]" assay_metric="Signal (peptides that bind to Z3G1)" experimental_value=2213
substance="1390 (SLLCEVETPIRCEWG; epitope peptide) [compound 1390]" assay_metric="Signal (peptides that bind to Z3G1)" experimental_value=2601
substance="1328 (MSLLCEVETPCRNE; epitope peptide) [compound 1328]" assay_metric="Signal (peptides that bind to Z3G1)" experimental_value=2652
substance="651 (SLLTEVETPIRNEWGCRCHDSSD; epitope peptide) [compound 651]" assay_metric="Signal (peptides that bind to Z3G1)" experimental_value=2350
substance="334 (CSLLTEVGMSLCTEV; epitope peptide) [compound 334]" assay_metric="Signal (peptides that bind to Z3G1)" experimental_value=2857
substance="1336 (MSLLCEVGMSCLTEV; epitope peptide) [compound 1336]" assay_metric="Signal (peptides that bind to Z3G1)" experimental_value=2846
substance="371 (MSLCTEVGMSLLTEV; epitope peptide) [compound 371]" assay_metric="Signal (peptides that bind to Z3G1)" experimental_value=2691
substance="432 (SLLTEVETPIRNEWGCRCNDSVD; epitope peptide) [compound 432]" assay_metric="Signal (peptides that bind to Z3G1)" experimental_value=2232
substance="406 (SLLTEVETPIRNEWGCRCNDFSD; epitope peptide) [compound 406]" assay_metric="Signal (peptides that bind to Z3G1)" experimental_value=2395
substance="508 (MSLCTEVGCSLLTEV; epitope peptide) [compound 508]" assay_metric="Signal (peptides that bind to Z3G1)" experimental_value=2832
